Property Name: melting point

molecule=CCc1ncc(-c2nc(N3CCOCC3)c3sc(CN(C)c4ncc(C(=O)NO)cn4)cc3n2)cn1 result="153 to 156 °C"
molecule=COc1ccc(-c2nc(N3CCOCC3)c3sc(NCCCCCC(=O)NO)cc3n2)cn1 result="125 to 130 °C"
molecule="CC(O)c1ccc(F)c(-c2nc(N3CCOCC3)c3sc(CN(C)c4ncc(C(=O)NO)cn4)cc3n2)c1 (stereo not shown)" result="230 to 235 °C"
molecule=CN(Cc1cc2nc(-c3cnn(C)c3)nc(N3CCOCC3)c2s1)c1ncc(C(=O)NO)cn1 result="164 to 169 °C"
molecule=CN(Cc1cc2nc(-c3cccc(CN)c3)nc(N3CCOCC3)c2s1)c1ncc(C(=O)NO)cn1 result="173 to 176 °C"

Could you report melting point for every entry in the following list?
1. Nc1ncc(-c2nc(N3CCOCC3)c3sc(NCCCCCCC(=O)NO)cc3n2)cn1
2. O=C(CCCCCCN1CCN(Cc2cc3nc(-c4cccc5[nH]ncc45)nc(N4CCOCC4)c3s2)CC1)NO
3. CN(Cc1cc2nc(-c3cc[nH]c3)nc(N3CCOCC3)c2s1)c1ncc(C(=O)NO)cn1
4. CC(=O)Nc1cccc(-c2nc(N3CCOCC3)c3sc(CN(C)c4ncc(C(=O)NO)cn4)cc3n2)c1
5. O=C(/C=C/c1ccc(NCc2cc3nc(-c4cccc5[nH]ncc45)nc(N4CCOCC4)c3s2)cc1)NO
6. CC(C)CN(Cc1cc2nc(-c3cccc4[nH]ncc34)nc(N3CCOCC3)c2s1)c1ncc(C(=O)NO)cn1
7. CNc1ccc(-c2nc(N3CCOCC3)c3sc(CN(C)c4ncc(C(=O)NO)cn4)cc3n2)cc1
8. CN(Cc1cc2nc(-c3ccc(C(F)(F)F)cc3)nc(N3CCOCC3)c2s1)c1ncc(C(=O)NO)cn1

["235 to 240 °C", "119 to 122 °C", "175 to 189 °C", "183 to 185 °C", "> 300 °C", "196 to 198 °C", "218 to 220 °C", "222 to 223 °C"]

====

Subject Of Test: mTor serine/threonine protein kinase (Homo sapiens)
Construct: FLAG
Assay Notes: mTor kinase radioisotope assay
Particulars: 70 uM ATP, 40 minutes; read-out: m-TOR IC50
Would you kindly list IC50 for each of these molecules?

Consider the following illustrative entries.
chemical_structure=CN(Cc1cc2nc(-c3ccc(N)nc3)nc(N3CCOCC3)c2s1)c1ncc(C(=O)NO)cn1 subject_of_test="mTor serine/threonine protein kinase (Homo sapiens)" result="< 100 nM"
chemical_structure=Cc1ncc(-c2nc(N3CCOCC3)c3sc(CN(C)c4ncc(C(=O)NO)cn4)cc3n2)cn1 subject_of_test="mTor serine/threonine protein kinase (Homo sapiens)" result="100 to 1000 nM"
chemical_structure=CN(Cc1cc2nc(-c3ccc(OCCO)nc3)nc(N3CCOCC3)c2s1)c1ncc(C(=O)NO)cn1 subject_of_test="mTor serine/threonine protein kinase (Homo sapiens)" result="> 10000 nM"

For each of the items listed, what is its IC50?
1. CN(CCCC(=O)NO)Cc1cc2nc(-c3cccc4[nH]ncc34)nc(N3CCOCC3)c2s1
2. CN(CCCCC(=O)NO)Cc1cc2nc(-c3cccc4[nH]ncc34)nc(N3CCOCC3)c2s1
3. CN(Cc1cc2nc(-c3ccc(N)c(CO)c3)nc(N3CCOCC3)c2s1)c1ncc(C(=O)NO)cn1
4. CN(Cc1cc2nc(-c3cccc(O)c3)nc(N3CCOCC3)c2s1)c1ncc(C(=O)NO)cn1

["100 to 1000 nM", "100 to 1000 nM", "< 100 nM", "< 100 nM"]
